Test system: HOP-92 NSCLC
Experiment: NCI-60 one-dose screen, 48 h
Settings: 10 µM unless noted
About 83,000 compounds went through this panel and 20% of them were active in at least one assay; those are over-represented in the sample as a whole. Activity calls are given as the source filed them. Rule for the calls: active = growth percent below 10; inactive = the rest.
Outcomes: label 1 = active, label 0 = inactive

[[record]]
compound = "CCCN=C1NC(=O)/C(=C/c2nc(-c3ccc(OC)cc3)n3ccccc23)S1"
classification = "label 0"

[[record]]
compound = "COc1cc(-c2nn(-c3cccc(NC(=O)c4ccc(N5CCOCC5)c(C(F)(F)F)c4)c3)cc2-c2ccncc2)ccc1Cl"
classification = "label 0"

[[record]]
compound = "COc1ccc(/C(C#N)=C/c2cc(OC)c(OC)c(OC)c2)cc1"
classification = "label 0"

[[record]]
compound = "CCN1CCN(c2nc(NNC(=O)c3ccccc3)nc(N3CCN(C(c4ccccc4)c4ccccc4)CC3)n2)CC1"
classification = "label 0"

[[record]]
compound = "COc1ccc(-c2nc(SCCC(C)C)nc(Nc3ccc(F)c(Cl)c3)c2C#N)cc1"
classification = "label 0"

[[record]]
compound = "Cc1ccc(S(=O)(=O)n2cc(C(=O)C(=O)N3CCOCC3)c3ccccc32)cc1"
classification = "label 0"

[[record]]
compound = "S=C(S)NCCc1c[nH]c2ccccc12"
classification = "label 0"

[[record]]
compound = "CC(C)(C)n1cc(-c2ccnc(NCCCNS(=O)(=O)c3ccc(F)cc3)c2)c(-c2cccc(O)c2)n1"
classification = "label 0"

[[record]]
compound = "COc1ccc(/C=C2/C(=O)NC(SCC(=O)N3CCN(c4cc5c(cc4F)c(=O)c(C(=O)O)cn5C4CC4)CC3)=NC2N)cc1OC (stereo not given)"
classification = "label 0"

[[record]]
compound = "COc1ccc(/C=C2\\Oc3cc(OCCCN4CCCC4)ccc3C2=O)cc1"
classification = "label 0"

[[record]]
compound = "CCN(CC)CCCNc1nccc2ccc(Cl)cc12"
classification = "label 0"

[[record]]
compound = "C=C1CC2(OC1=O)C(=O)N(CCCN1C(=O)C3(CC(=C)C(=O)O3)c3ccccc31)c1ccccc12 (stereo not given)"
classification = "label 1"

[[record]]
compound = "COc1ccc2c(c1)cn1c3ccc(OC)cc3[nH]c(=O)c21"
classification = "label 0"

[[record]]
compound = "COc1ccc(-c2ccc(-c3ccc(-c4ccc(C(=N)N)cc4)s3)s2)cc1OC"
classification = "label 0"

[[record]]
compound = "COc1cccc(-c2cc3c(O)cc(C#N)cc3[nH]2)c1"
classification = "label 0"

[[record]]
compound = "CN(C)c1oc(C2OC2c2ccccc2)nc1C#N (stereo not given)"
classification = "label 0"

[[record]]
compound = "COC(=O)c1cccc2c1N(C)c1c(cccc1C(=O)OC)CC2"
classification = "label 0"

[[record]]
compound = "O=C1c2c(Cl)c(Cl)c(Cl)c(Cl)c2C(=O)C2(Cl)CC=CCC12Cl (stereo not given)"
classification = "label 1"

[[record]]
compound = "O=[N+]([O-])c1cccc(-c2nc3sccn3c2-c2ccnc(NCCCNS(=O)(=O)c3ccc(C(F)(F)F)cc3)n2)c1"
classification = "label 0"

[[record]]
compound = "c1cc(C2=N[C@@H]3c4ccccc4C[C@@H]3O2)nc(C2=N[C@@H]3c4ccccc4C[C@@H]3O2)c1"
classification = "label 0"

[[record]]
compound = "OCCCCCCNc1ncnc2cc(Cl)ccc12"
classification = "label 0"

[[record]]
compound = "COc1cc(-c2nn(-c3cccc(NC(=O)Nc4ccc(Cl)c(Cl)c4)c3)cc2-c2ccncc2)ccc1Cl"
classification = "label 1"

[[record]]
compound = "Cc1csc(NC(c2ccccc2)c2c(C)nc3ccccn23)n1 (stereo not given)"
classification = "label 0"

[[record]]
compound = "COc1ccc(OC)c(/C=C2\\Oc3cc(OCCCN4CCCC4)ccc3C2=O)c1"
classification = "label 0"

[[record]]
compound = "O=C(O)COc1ccc(-c2cssc2=S)cc1"
classification = "label 0"

[[record]]
compound = "COc1ccc(C2C=C(c3ccc(OC)c(OC)c3)N=C3SC=C(C)N32)c(Br)c1 (stereo not given)"
classification = "label 0"

[[record]]
compound = "Oc1ccccc1/C=N/NC(=S)NC1CC2C=CC1C2 (stereo not given)"
classification = "label 0"

[[record]]
compound = "C=C[C@@H]1C[C@H](O)Cc2ccccc2N1"
classification = "label 0"

[[record]]
compound = "O=S(=O)(CC(O)(c1ccccc1)c1ccccc1)CC(O)(c1ccccc1)c1ccccc1"
classification = "label 0"

[[record]]
compound = "C=C1C(=O)O[C@H]2[C@H]1CC/C(Cn1cc(CNC(=O)/C=C/c3c[nH]c4ccccc34)nn1)=C\\CC[C@@]1(C)O[C@@H]21"
classification = "label 0"

[[record]]
compound = "O=C(O)c1cn(C2CC2)c2cc(N3CCN(C(=O)/C=C/c4ccc(Cl)cc4)CC3)c(F)cc2c1=O"
classification = "label 0"

[[record]]
compound = "COc1ccc(-c2c(N)n[nH]c2-c2cc(OC)c(OC)c(OC)c2)cc1"
classification = "label 0"

[[record]]
compound = "O=C(CCl)N(C1CCCCC1)C1CCCCC1"
classification = "label 0"

[[record]]
compound = "COc1ccc(C(=O)NC(=O)Nc2cc3c(cc2F)/C(=C/c2[nH]c(C)c(CCC(=O)O)c2C)C(=O)N3)c(F)c1"
classification = "label 1"

[[record]]
compound = "COc1ccc(S(=O)(=O)NCCCNc2nccc(-n3ccc4cccnc43)n2)cc1"
classification = "label 0"

[[record]]
compound = "COc1cccc(-c2nc3sccn3c2-c2ccnc(NCCCNS(=O)(=O)c3ccc(C(F)(F)F)cc3)c2)c1"
classification = "label 0"

[[record]]
compound = "COc1ccc(-c2nc3sccn3c2/C=C/C(=O)c2cc(F)cc(F)c2)cc1"
classification = "label 0"

[[record]]
compound = "O=S(=O)(NCCNc1nccc(-c2c(-c3ccc(F)cc3)nc3sccn23)n1)c1ccc(F)cc1"
classification = "label 0"

[[record]]
compound = "Nc1nc(=O)c2ccccc2s1"
classification = "label 0"

[[record]]
compound = "CC(C)CC1NC(C)(C)CO1 (stereo not given)"
classification = "label 0"

